Data provenance: patent US7960549B2

Assay: Water sorption/desorption cycling (dynamic vapor sorption, DVS) at 25° C., with XRPD before and after
Type: physicochemical
Settings: two consecutive cycles, 25° C., 0% to 90% relative humidity
quantity: XRPD before and after water sorption/desorption cycling

> print(dat)
                                   compound                result
1  CC(C)(O)c1ccc2c(c1)/C(=C/CCN1CC[C@](O)(c3ccc(Cl)cc3)C(C)(C)C1)c1cccnc1CO2 [Form B]  no structural change
2  CC(C)(O)c1ccc2c(c1)/C(=C/CCN1CC[C@](O)(c3ccc(Cl)cc3)C(C)(C)C1)c1cccnc1CO2 [Form A]  no structural change

----------
Experiment: Controlled temperature (isothermal) X-ray powder diffraction: thermal stability of the crystalline form
Type: physicochemical
Conditions: dry nitrogen; ambient to 210° C.
Procedure: X-ray powder diffraction (XRPD) is performed on various samples of the Citrate Salt using one of three instruments. XRPD measurements with Instrument 1 utilize a Siemens-Bruker D5000 Matic powder diffractometer with a Bragg-Brentano (vertical θ-2θ configuration) parafocusing geometry. X-rays are produced from a sealed cobalt anode running at 40 kV and 30 mA. […] Diffracted X-rays are detected with a Braun 50 M multichannel linear detector having a 10°-wide detection window in angle 2θ. […]
quantity: form conversion as the temperature is raised (isothermal XRPD)

> print(dat)
                                   compound              result
1  CC(C)(O)c1ccc2c(c1)/C(=C/CCN1CC[C@](O)(c3ccc(Cl)cc3)C(C)(C)C1)c1cccnc1CO2 [Form G]  converts to Form B
2  CC(C)(O)c1ccc2c(c1)/C(=C/CCN1CC[C@](O)(c3ccc(Cl)cc3)C(C)(C)C1)c1cccnc1CO2 [Form F]  converts to Form B
3  CC(C)(O)c1ccc2c(c1)/C(=C/CCN1CC[C@](O)(c3ccc(Cl)cc3)C(C)(C)C1)c1cccnc1CO2 [Form E]  converts to Form B

----------
Assay: Thermal gravimetric analysis (TGA)
Type: physicochemical
Details: heating rate 5° C./min; sample of the single form (Form H formed from Form E sample)
quantity: TGA weight loss of the transition

> print(dat)
                                   compound                           quantity              result
1  CC(C)(O)c1ccc2c(c1)/C(=C/CCN1CC[C@](O)(c3ccc(Cl)cc3)C(C)(C)C1)c1cccnc1CO2 [Form E]  TGA weight loss of the transition        6.14 % (w/w)
2  CC(C)(O)c1ccc2c(c1)/C(=C/CCN1CC[C@](O)(c3ccc(Cl)cc3)C(C)(C)C1)c1cccnc1CO2 [Form H]  TGA weight loss of the transition       20.10 % (w/w)
3  CC(C)(O)c1ccc2c(c1)/C(=C/CCN1CC[C@](O)(c3ccc(Cl)cc3)C(C)(C)C1)c1cccnc1CO2 [Form A]  TGA weight loss of the transition  about 27.5 % (w/w)
4  CC(C)(O)c1ccc2c(c1)/C(=C/CCN1CC[C@](O)(c3ccc(Cl)cc3)C(C)(C)C1)c1cccnc1CO2 [Form B]  TGA weight loss of the transition  about 27.5 % (w/w)

----------
# key: entry, value: TGA weight loss transition, temperature of maximum rate of weight loss
Test: Thermal gravimetric analysis (TGA)
Assay type: physicochemical
Details: heating rate 5° C./min; sample of the single form (Form H formed from Form E sample); ±3° C.
quantity: TGA weight loss transition, temperature of maximum rate of weight loss (°C)

> print(dat)
                                   molecule  result
1  CC(C)(O)c1ccc2c(c1)/C(=C/CCN1CC[C@](O)(c3ccc(Cl)cc3)C(C)(C)C1)c1cccnc1CO2 [Form B]     192
2  CC(C)(O)c1ccc2c(c1)/C(=C/CCN1CC[C@](O)(c3ccc(Cl)cc3)C(C)(C)C1)c1cccnc1CO2 [Form E]      64
3  CC(C)(O)c1ccc2c(c1)/C(=C/CCN1CC[C@](O)(c3ccc(Cl)cc3)C(C)(C)C1)c1cccnc1CO2 [Form A]     183
4  CC(C)(O)c1ccc2c(c1)/C(=C/CCN1CC[C@](O)(c3ccc(Cl)cc3)C(C)(C)C1)c1cccnc1CO2 [Form H]     142

----------
Experiment: Differential scanning calorimetry (DSC)
Assay type: physicochemical
Details: heating rate 5° C./min; A, B, H: melting/decomposition; E: loss of water and conversion to Form H; ±3° C.
quantity: DSC endothermic transition, interpolated beginning temperature

> print(dat)
                                   compound  result
1  CC(C)(O)c1ccc2c(c1)/C(=C/CCN1CC[C@](O)(c3ccc(Cl)cc3)C(C)(C)C1)c1cccnc1CO2 [Form A]  169 °C
2  CC(C)(O)c1ccc2c(c1)/C(=C/CCN1CC[C@](O)(c3ccc(Cl)cc3)C(C)(C)C1)c1cccnc1CO2 [Form B]  184 °C
3  CC(C)(O)c1ccc2c(c1)/C(=C/CCN1CC[C@](O)(c3ccc(Cl)cc3)C(C)(C)C1)c1cccnc1CO2 [Form E]   45 °C
4  CC(C)(O)c1ccc2c(c1)/C(=C/CCN1CC[C@](O)(c3ccc(Cl)cc3)C(C)(C)C1)c1cccnc1CO2 [Form H]  131 °C

----------
Test: Differential scanning calorimetry (DSC)
Assay type: physicochemical
Conditions: heating rate 5° C./min; A, B, H: melting/decomposition; E: loss of water and conversion to Form H; ±3° C.
quantity: DSC endothermic transition, Tmax

> print(dat)
                                   compound  result
1  CC(C)(O)c1ccc2c(c1)/C(=C/CCN1CC[C@](O)(c3ccc(Cl)cc3)C(C)(C)C1)c1cccnc1CO2 [Form E]   67 °C
2  CC(C)(O)c1ccc2c(c1)/C(=C/CCN1CC[C@](O)(c3ccc(Cl)cc3)C(C)(C)C1)c1cccnc1CO2 [Form H]  141 °C
3  CC(C)(O)c1ccc2c(c1)/C(=C/CCN1CC[C@](O)(c3ccc(Cl)cc3)C(C)(C)C1)c1cccnc1CO2 [Form B]  189 °C
4  CC(C)(O)c1ccc2c(c1)/C(=C/CCN1CC[C@](O)(c3ccc(Cl)cc3)C(C)(C)C1)c1cccnc1CO2 [Form A]  176 °C

----------
Experiment: Thermal gravimetric analysis (TGA)
Assay type: physicochemical
Settings: heating rate 5° C./min; sample of the single form (Form H formed from Form E sample); ±3° C.
quantity: TGA weight loss transition, interpolated beginning temperature (°C)

> print(dat)
                                   compound  result
1  CC(C)(O)c1ccc2c(c1)/C(=C/CCN1CC[C@](O)(c3ccc(Cl)cc3)C(C)(C)C1)c1cccnc1CO2 [Form E]      52
2  CC(C)(O)c1ccc2c(c1)/C(=C/CCN1CC[C@](O)(c3ccc(Cl)cc3)C(C)(C)C1)c1cccnc1CO2 [Form H]     127
